Exercise: for every item that follows, state its recorded growth.
Test system: DU-145 prostate
run.description: NCI-60 one-dose screen, 48 h (100 = growth as untreated, 0 = no growth, -100 = all killed)
measurement.context: 10 µM unless noted
The panel holds about 83,000 compounds, 20% with a hit somewhere; the sample as a whole holds those more often.
Respond numerically; units are % and should not be typed.

The molecule listed as "O=Cc1c(OCc2cnnn2CC(=O)Nc2ccc(Br)cc2)ccc2ccccc12" has a reported growth of 96.9

growth in this record for "COC(=O)c1c2c(c(C)[n+]([O-])c1C)C(=O)C(NCc1ccc(Br)cc1)=CC2=O" : 53.3

Sure, the documented growth for "O=C(Nc1ccc(I)cc1F)c1cc(Br)ccc1O" is 14.2

// growth lookup, molecule = "CCOC(=O)c1c2c(c(C)n1Cc1ccc(OC)cc1)-c1oncc1CC2" , result: 96

The molecule listed as "O=c1c2cc(F)cc(Cl)c2sc2c(Cl)nc3ccccc3c12" shows growth equal to 109

Record summary for "Nc1n[nH]c2ccc([C@@H]3Nc4ccc5[nH]ncc5c4[C@H]4[C@H]5CCC(C5)[C@H]43)cc12" : reported growth = 7.74

The molecule listed as "N[C@@H](CC/[N+]([O-])=N/O)C(=O)O" shows growth equal to 97.8

Per the records, this molecule ( "O=NN(Cc1cccnc1)C(=O)NC1CCCCC1" ) has growth equal to 116

Memo: "COc1ccc2[nH]c(O)c(N=NC(=O)c3oc4ccccc4c3C)c2c1" , reported growth: 17.6

# growth of "CCOC(=O)c1cc2c(n1Cc1ccccc1)-c1oncc1CCC2" = 114

Value of measured growth for the entry "Cc1ccc(F)cc1NC(=O)c1cc(Cl)ccc1Nc1ccccc1" : 69.6

Per the record, COc1ccc(-n2c(C(O)c3ccccc3)n[nH]c2=S)cc1 (stereo not drawn) has growth of 113

Please fill in: growth reported for O=S(=O)(Nc1ncccn1)c1ccc(NC2Nc3nc4ccccc4nc3S2)cc1 (stereo not drawn) = 105

Form field growth, entry "CCOC(=O)c1sc(-c2ccc(OS(=O)(=O)c3ccc(Br)s3)c(C=O)c2)nc1C" : 21.2

Documented growth of C=C(C)CCC(C)N1CCC(N2CCC(C(=O)NCCc3ccccc3)CC2)CC1 (stereo not drawn) : 62.2

response.value for CC1=NCC2NC(=O)NC(C)=C12 (stereo not drawn) (field: growth) = 104

The molecule "COc1ccc(Cn2c(Br)c3c(c2Br)-c2nc(N)sc2CC3)cc1" showed growth equal to 57

growth reading for "O=c1oc2ccc(Br)cc2c(=O)n1-c1ccc(Cl)cc1F" : 16.4

Memo: "O=c1nc2sc3nc4ccccc4cc3cc-2s1" , reported growth: 114

Short answer for "COc1ccc(/C=C2\NC(=O)NC2=O)cc1O" : growth was 116

# molecule "O=c1oc2ccc(Br)cc2c(=O)n1-c1ccc(F)cc1F" ; its growth = 18

What the record says about "O=C(Nc1ccc(Cl)cc1F)c1cc(I)ccc1O" : growth is 31.9

# growth (molecule: "C#CCn1cc(C=C2C(=O)NC(=O)NC2=O)c2cc(Cl)ccc21" ) is 87.6

Measured values drawn from PubChem BioAssay (NCI) for this set.
